# Test system: DU-145 prostate
# assay notes: NCI tumour cell line growth inhibition, 48 h

molecule	TGI
CCOC(=O)NNC(=O)NCc1cccc(CNC(=O)NNC(=O)OCC)c1	> 100 µM
C[N+](C)(C)c1ncnc2c1ncn2C1CC(O)C(CO)O1 (stereo unspecified)	> 100 µM
CCc1cccc(C)c1NC(=O)c1sc2nc3c(cc2c1N)C(=O)CCC3	> 100 µM
Nc1ccc2c(c1)nc1n2C(c2c(F)cccc2F)SC1 (stereo unspecified)	> 100 µM
CC(C)(O)CNc1nc(Nc2ccnc(C(F)(F)F)c2)nc(-c2cccc(C(F)(F)F)n2)n1	67.8 µM
CCc1c(C)c(C#N)c(=S)n(C2OC(COC(C)=O)C(OC(C)=O)C(OC(C)=O)C2OC(C)=O)c1-c1ccccc1 (stereo unspecified)	> 31.6 µM
